Every entry's value here was drawn from patent US20220073617A1.

# Target under test: T1, monovalent hVISTA-ECD (human VISTA extracellular domain with His tail) (human, UniProt Q9H7M9 33-193)
# T1 construct: analyte flowed over captured antibody; also called huVISTA-His
# T1 sequence (Q9H7M9 other isoform, or with tags, fused parts or gaps limits assumed): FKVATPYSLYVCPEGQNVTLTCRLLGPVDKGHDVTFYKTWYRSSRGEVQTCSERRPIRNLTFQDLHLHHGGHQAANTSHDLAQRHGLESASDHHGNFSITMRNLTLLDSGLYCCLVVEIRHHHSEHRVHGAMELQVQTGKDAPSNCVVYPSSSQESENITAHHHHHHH
# Test summary: SPR, pH 6.0
Listed next: entries and their corresponding pKd.
For clarity, pKd is expressed as the negative log10 of concentration in mol/L.

{"Binder": "P1-064494 (41F11_Vk_A25EA64G) (antibody, V domains shown, also called P1-064494-1) VH: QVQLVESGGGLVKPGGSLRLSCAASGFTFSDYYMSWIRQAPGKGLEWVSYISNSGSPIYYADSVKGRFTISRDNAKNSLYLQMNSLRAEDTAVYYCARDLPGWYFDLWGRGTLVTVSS VL: EIVLTQSPATLSLSPGERATLSCRESQSVSSYLAWYQQKPGQAPRLLIYDASNRATGIPARFSGSGSGTDFTLTISSLEPEDFAVYYCQQRNNWPRTFGQGTKVEIK", "Measurement": 7.45}
{"Binder": "P1-065319 (41F11_VH_F100aG VK_A64G) (antibody, V domains shown, Kabat positions; also called P1-065319-1) VH: QVQLVESGGGLVKPGGSLRLSCAASGFTFSDYYMSWIRQAPGKGLEWVSYISNSGSPIYYADSVKGRFTISRDNAKNSLYLQMNSLRAEDTAVYYCARDLPGWYGDLWGRGTLVTVSS VL: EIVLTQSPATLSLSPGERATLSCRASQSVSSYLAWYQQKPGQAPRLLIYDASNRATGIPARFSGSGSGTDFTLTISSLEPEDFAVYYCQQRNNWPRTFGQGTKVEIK", "Measurement": 7.54}
{"Binder": "P1-064486 (41F11_VH_F100aG) (antibody, V domains shown, Kabat positions; also called P1-064486-1) VH: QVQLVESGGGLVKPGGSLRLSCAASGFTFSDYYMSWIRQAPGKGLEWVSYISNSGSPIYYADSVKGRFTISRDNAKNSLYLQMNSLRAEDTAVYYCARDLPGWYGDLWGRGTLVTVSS VL: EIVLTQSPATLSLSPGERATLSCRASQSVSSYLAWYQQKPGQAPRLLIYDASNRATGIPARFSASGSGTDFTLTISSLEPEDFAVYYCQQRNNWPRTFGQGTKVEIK", "Measurement": 7.46}
{"Binder": "P1-065312 (41F11_VH_F27E VK_A64G) (antibody, V domains shown, Kabat positions; also called P1-065312-1) VH: QVQLVESGGGLVKPGGSLRLSCAASGETFSDYYMSWIRQAPGKGLEWVSYISNSGSPIYYADSVKGRFTISRDNAKNSLYLQMNSLRAEDTAVYYCARDLPGWYFDLWGRGTLVTVSS VL: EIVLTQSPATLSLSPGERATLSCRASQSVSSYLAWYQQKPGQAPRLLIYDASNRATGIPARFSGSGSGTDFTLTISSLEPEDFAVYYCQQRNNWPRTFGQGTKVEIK", "Measurement": 7.65}
{"Binder": "P1-065325 (41F11_VH_D31E/Y50W/S55E/A60H/Y100E VK_A64G) (antibody, V domains shown, Kabat positions; also called P1-065325-1) VH: QVQLVESGGGLVKPGGSLRLSCAASGFTFSEYYMSWIRQAPGKGLEWVSWISNSGEPIYYHDSVKGRFTISRDNAKNSLYLQMNSLRAEDTAVYYCARDLPGWEFDLWGRGTLVTVSS VL: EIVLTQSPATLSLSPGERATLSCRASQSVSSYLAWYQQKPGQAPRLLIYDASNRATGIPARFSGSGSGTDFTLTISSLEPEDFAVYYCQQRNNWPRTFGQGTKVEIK", "Measurement": 9.75}

If you can, please state the reported pKd value of P1-065320 (41F11_VH_L96EF100aG VK_A64G) (antibody, V domains shown) VH: QVQLVESGGGLVKPGGSLRLSCAASGFTFSDYYMSWIRQAPGKGLEWVSYISNSGSPIYYADSVKGRFTISRDNAKNSLYLQMNSLRAEDTAVYYCARDEPGWYGDLWGRGTLVTVSS VL: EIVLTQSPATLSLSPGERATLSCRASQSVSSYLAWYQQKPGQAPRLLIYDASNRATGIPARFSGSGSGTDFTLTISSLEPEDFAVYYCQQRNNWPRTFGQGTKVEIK .
7.25
